Listing of entries alongside the reported GI50.
# System: OVCAR-5
# Assay Summary: NCI tumour cell line growth inhibition, 48 h
The source made the active and inactive calls. Cut-off read from the data, not from the text of the source: active = GI50 up to about 1.1 µM and inactive = higher.

[
  {
    "Compound": "Cc1cccc(C)c1NC(=O)C(=O)C(C(=O)c1ccccc1-c1ccccc1)C1OC(=O)c2ccccc21 (stereo not drawn)",
    "GI50": "23.2 µM (inactive)"
  },
  {
    "Compound": "CN(C)CCCN1c2ccccc2Sc2cnccc21",
    "GI50": "> 100 µM (inactive)"
  },
  {
    "Compound": "O=C1C(Cl)=C(N[C@@H](Cc2ccccc2)C(=O)OCc2ccccc2)C(=O)c2c(O)ccc(O)c21",
    "GI50": "6.18 µM (inactive)"
  }
]
